Hello, the source for this data is patent US5135746A, in case you need it.

Assay: Acute toxicity by oral administration to mice
Details: mouse, in vivo
Property measured: LD50 (mg/kg)
Number in mg/kg, nothing else.

"C=CCc1ccc(O)c(-c2cc(CC=C)ccc2O)c1" has a reported LD50 of 2200
